- Test system: INS-1 insulin-secreting β-cells
- method-description: Glucose (8.3 mmol·L^−1)-stimulated insulin secretion in INS-1 cells (HTRF insulin assay)
- Format: cell-based
- condition-description: compound 2 μM; 8.3 mmol·L^−1 glucose; control = glucose alone
measurement-type: % control response (glucose-stimulated insulin secretion) (%)

INSERT INTO measurements (compound, tested_system, readout_number) VALUES
  ('O=c1oc2cc(O)ccc2c2ccc(O)cc12', 'INS-1 insulin-secreting β-cells', 109.82),
  ('O=c1oc2c(O)c(O)ccc2c2cc(O)c(O)cc12', 'INS-1 insulin-secreting β-cells', 88.79),
  ('O=C(O)CNC(=O)c1ccc(O)cc1 [4′-hydroxyhippuric acid]', 'INS-1 insulin-secreting β-cells', 98.00),
  ('O=c1oc2cc(O)ccc2c2ccccc12', 'INS-1 insulin-secreting β-cells', 108.77),
  ('O=c1oc2cc(O)ccc2c2cc(O)c(O)cc12', 'INS-1 insulin-secreting β-cells', 107.14);
